# Tested on: HTT
# Protocol Text: RT-qPCR splicing assay for HTT mRNA isoforms (canonical junction CJ and alternative junction AJ)
# Type: cell-based
# Test Conditions: increase in AJ mRNA, A673 or K562 cell line, 24 hours treatment, read-out: HTT AJ AC50
Readout Label: AC50

Cc1cn2nc(-c3cc4ncn(C5CCN(C)CC5)c(=O)c4s3)cc(C)c2n1 | 1 to 10 µM
Cc1cn2cc(-c3nn4c(=O)cc(N5CCN(C)C6(CC6)C5)nc4s3)cc(F)c2n1 | 1 to 10 µM
Cc1cn2cc(-c3cc4ncn(C5CCNCC5)c(=O)c4s3)cc(F)c2n1 | < 0.1 µM

Next item in the queue.
input: Specify the recorded AC50 for Cc1cn2cc(-c3nn4c(=O)cc(N5CCNCC5)nc4s3)cc(F)c2n1 , system: HTT.
output: > 10 µM
